List of EC50 of cytotoxicity (LDH), sCAR-T cells + switch vs CD19+ RS4;11, assay DTR-5-50 (PBMC) values.
# SYSTEM: T1, CD19 (UniProt P15391 20-556, limits assumed)
# T1 sequence (looked up): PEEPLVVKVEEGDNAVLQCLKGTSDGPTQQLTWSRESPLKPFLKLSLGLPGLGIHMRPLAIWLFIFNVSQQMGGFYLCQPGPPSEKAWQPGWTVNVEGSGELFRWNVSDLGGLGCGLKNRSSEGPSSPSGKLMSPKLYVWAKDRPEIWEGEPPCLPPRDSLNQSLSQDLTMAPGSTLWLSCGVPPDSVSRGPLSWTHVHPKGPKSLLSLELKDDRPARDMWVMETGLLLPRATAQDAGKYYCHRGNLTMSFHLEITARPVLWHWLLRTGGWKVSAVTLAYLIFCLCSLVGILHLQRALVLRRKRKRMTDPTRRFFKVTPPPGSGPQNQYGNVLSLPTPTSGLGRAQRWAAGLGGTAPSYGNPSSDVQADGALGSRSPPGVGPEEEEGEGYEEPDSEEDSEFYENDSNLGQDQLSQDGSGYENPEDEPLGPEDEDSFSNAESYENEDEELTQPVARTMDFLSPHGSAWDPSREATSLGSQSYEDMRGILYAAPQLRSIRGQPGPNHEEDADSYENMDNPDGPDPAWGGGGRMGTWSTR
# EXPERIMENT_SUMMARY: cell-based or functional assay
Could you give me the number in nM? Just the number is fine.

BINDER: hFMCL2-LCNT/hFMCH4b (Fab, V domains shown) VH: QVQLQESGPGLVKPSETLSVTCTVSGVSLPDYGVSWIRQPPGKGLEWLGVIWGSETTYYNPSLKSRLTISKDNSKNQVSLKMSSLTAADTAVYYCAKHYYYGGSYAMDYWGQGTLVTVSS VL: DIQMTQSPSSLSASVGDRVTITCRASQDISKYLNWYQQKPGKAPKLLIYHTSRLHSGVPSRFSGSGSGTDYTLTISSLQPEDFATYYCQQGATLPYTFGQGTKLEIK
VALUE_OBSERVED: 0.0187

Consider the binder hFMCL2c-LCNT/hFMCH4b (Fab, V domains shown) VH: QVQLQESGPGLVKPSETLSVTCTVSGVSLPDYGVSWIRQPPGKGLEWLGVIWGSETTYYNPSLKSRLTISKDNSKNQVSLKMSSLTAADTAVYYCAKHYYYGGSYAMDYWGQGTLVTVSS VL: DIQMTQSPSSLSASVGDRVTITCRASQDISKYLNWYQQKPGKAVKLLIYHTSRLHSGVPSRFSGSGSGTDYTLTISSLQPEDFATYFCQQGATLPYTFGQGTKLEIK . State its measured EC50 of cytotoxicity (LDH), sCAR-T cells + switch vs CD19+ RS4;11, assay DTR-5-50 (PBMC). 0.00378
